systemUnderTest: T1, human IL-12Rβ2, Acro (BLI analyte) (human, UniProt Q99665 24-622, limits assumed)
T1 sequence (looked up): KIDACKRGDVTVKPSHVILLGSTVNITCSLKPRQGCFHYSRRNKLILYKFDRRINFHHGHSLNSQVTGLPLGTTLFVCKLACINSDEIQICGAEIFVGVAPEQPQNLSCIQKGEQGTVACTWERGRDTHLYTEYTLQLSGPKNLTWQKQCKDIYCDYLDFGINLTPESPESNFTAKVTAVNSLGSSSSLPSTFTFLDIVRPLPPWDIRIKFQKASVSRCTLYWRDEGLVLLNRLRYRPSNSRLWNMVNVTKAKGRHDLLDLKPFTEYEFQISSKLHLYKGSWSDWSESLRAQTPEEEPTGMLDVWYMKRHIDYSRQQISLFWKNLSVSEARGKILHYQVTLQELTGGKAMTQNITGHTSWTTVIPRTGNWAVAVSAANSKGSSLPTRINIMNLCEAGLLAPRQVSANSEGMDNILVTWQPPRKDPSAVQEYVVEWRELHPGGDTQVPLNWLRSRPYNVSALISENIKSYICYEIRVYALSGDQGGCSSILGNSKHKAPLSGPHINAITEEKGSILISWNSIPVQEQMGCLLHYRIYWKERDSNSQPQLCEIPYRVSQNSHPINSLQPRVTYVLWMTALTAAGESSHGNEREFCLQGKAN
method: BLI (Octet), antibody on AHC tip
resultType: log10(Kd) (log10 of the value in nM)
A difference of one corresponds to tenfold Kd; all values are log10 with Kd in nM.

So what does the record say about log10(Kd) for DGL482 (bispecific antibody, V domains shown, 67B1 x 64B2) V domain 1: QVQLVESGGGLVQAGGSLRLSCAASARIFNSYAVAWFRQTPGKEREFVASISWSGGSTNYADSVKGRFTISRDNAKNTVFLQMNSLKPADTAVYYCAADRNYYPSVLGKYTYWGQGTQVTVEP V domain 2: QVQLVESGGGLVQPGGSLRLSCAASGFTFSSKAMHWFRQAPGKGLEWVSSINSGGAITYYKDSVKGRFTVSRDNAKNILYLEMNSLKPEDTALYYCATDTDGRTRGQGTQVTVEP ? 0.87

What does the record list as log10(Kd) for DGL516 (bispecific antibody, V domains shown, 97B1 x 93B2) V domain 1: QVQLVESGGGLAQAGGSLRLSCAASGRTFSNDDMAWFRQAPGKEREFVAHIDRNAASTNYADSVKGRFTISRDNAKNTVYLQMTRLKPEDTAVYYCAADPDHFGTTWYQQYTYWGPGTQVTVEP V domain 2: QVQLVESGGGLVQPGGSLRLSCAASGFTFEPYDMSWFRQAPGKGPEWVSAIDKGGGAGATYYADSVKGRFTISRDNAKKTLYLQMKSLKPEDTAVYYCAITAGPYSDSTPRVAYRGEGTQVTVEP ? 0.53

Consider the binder shown here: DGL607 (bispecific antibody, V domains shown, 86B1 x 278B2) V domain 1: QVQLVESGGGLMQAGGSLRLSCALSRGIFSAYAMGWFRQVQGKEREFVSGISRSGSTTDYVDTAKGRFTISRDNARDTVYLQMNSLKPEDTAVYYCAAVTGTFPSSTYHNANAYHHWGQGTQVTVEP V domain 2: QVQLVESGGGLVQAGGSLKLSCAASGGTFSSYAMGWFRQAPGKEREFVAVIMRSGDTTAYVDSVKGRFTVSRDNAKNTVYLQMNSLKPEDAAVYFCAAGRPVTRTYYHTYTYPHDYDYWGQGTQVTVEP What is its recorded log10(Kd)? 1.07

Which log10(Kd) value belongs to DGL481 (bispecific antibody, V domains shown, 67B1 x 19B2) V domain 1: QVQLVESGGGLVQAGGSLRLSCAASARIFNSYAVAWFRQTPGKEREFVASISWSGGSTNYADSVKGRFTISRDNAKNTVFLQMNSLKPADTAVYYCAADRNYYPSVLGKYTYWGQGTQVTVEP V domain 2: QVQLVESGGGLVQPGGSLRLSCAASGFTFSNYAMSWVRQAPGKGLEWVSAINSDGTSTSYADSVKGQFTISRDNAKNTLYLQMNSLKPEDTAVYYCTKWEGDTDSDYKFKDYWGQGTQVTVEP ? -0.11

Would you kindly share the measured log10(Kd) for DGL568 (bispecific antibody, V domains shown, 233B1 x 13B2) V domain 1: QVQLVESGGGLVQAGGSLRLSCAASRSISSFNEMAWYRQAPGEQRELVATIVSTVGFTNYADSVKGRFTISRDNAKNTVYLQMNSLKAEDTAVYYCNARRISTDYWGQGTQVTVEP V domain 2: QVQLVESGGGLVRPGGSLRLSCAASGFTFSSNGMHWFRQAPGKGLEWVSSIGSGGTSIYYADSVKGRFTISRDNAKNTLYLQMNSLKSDDTAVYYCSKEVTGATRGQGTQVTVEP ? 0.37

Name the reported log10(Kd) value associated with the binder DGL606 (bispecific antibody, V domains shown, 238B1 x 219B2) V domain 1: QLQLVESGGGLVQPGGSLRLSCAASGFTFSSYGMSWVRQAPGKGLEWVSYISAGGGTTTYVDFVKGRFTISRDNAKNMLYLQMNSLKPEDTAVYYCVHAADGSRGQGTQVTVEP V domain 2: QVQLEESGGGLVQAGGSLRLSCAASGRTFSSYVVGWFRQAPGKEREFVGRISWSGARTYYADSVEGRFTISRDNAKNTVYLQMNSLKPEDTAVYYCAADLKWEVLLSEHYEYWGQGTQVTVEP 0.78
